Taken from ChEMBL document CHEMBL5634128.

# Assay Comment: Cytotoxicity against chicken embryo fibroblast cells assessed as reduction in cell growth at 50 uM by CCK-8 assay relative to control
# Assay type: toxicity, cell-based, Gallus gallus
# Experimental Conditions: chicken embryo fibroblast cells, read-out: Activity
Could you please report measured percent cell viability relative to control at 50 µM for the items listed next?
Unit % implied. Number only.

Query `COc1cccc(OC)c1C(=O)CCc1ccc(C(C)(C)C)cc1` yields percent cell viability relative to control at 50 µM of 96.4

Measured percent cell viability relative to control at 50 µM, `CCCOc1ccc(/C=C/C(=O)/C=C/c2c(OC)cccc2OC)cc1` : 149

Reported percent cell viability relative to control at 50 µM for `COc1cccc(OC)c1/C=C/C(=O)/C=C/c1ccc(C(C)(C)C)cc1` was 86

response.value for `COc1cccc(OC)c1/C=C/C(=O)/C=C/c1ccccc1N1CCOCC1` (field: percent cell viability relative to control at 50 µM) = 63.3

Consider `COc1cccc(OC)c1/C=C/C(=O)/C=C/c1ccc(N2CCCCC2)cc1` . Its measured percent cell viability relative to control at 50 µM is 110

Lab book: percent cell viability relative to control at 50 µM of `COc1cccc(OC)c1/C=C/C(=O)/C=C/c1ccc(-c2ccccc2)c(C)c1` noted as 113

What the record says about `COc1ccc(/C=C/C(=O)/C=C/c2c(OC)cccc2OC)cc1-c1ccccc1` : percent cell viability relative to control at 50 µM is 85

Memo: `COc1cccc(OC)c1/C=C1\CCC/C(=C\c2ccc([N+](=O)[O-])cc2)C1=O` , reported percent cell viability relative to control at 50 µM: 66.9

The recorded percent cell viability relative to control at 50 µM for `COc1cccc(OC)c1C(=O)CCc1ccc(C)cc1` is 65

percent cell viability relative to control at 50 µM for `COc1cccc(OC)c1/C=C/C(=O)/C=C/c1ccc(N2CCCC2)cc1` is 133

// recorded percent cell viability relative to control at 50 µM for `COc1cccc(OC)c1/C=C1\CCC/C(=C\c2ccc(C)cc2)C1=O` : 67.2

Per the records, this molecule ( `CCN(CC)c1ccc(/C=C/C(=O)/C=C/c2c(OC)cccc2OC)cc1` ) has percent cell viability relative to control at 50 µM equal to 117

Query COc1cccc(OC)c1C(=O)C1OC1c1ccc(C(C)(C)C)cc1 (stereo unspecified) yields percent cell viability relative to control at 50 µM of 85.8

Data point: `COc1cccc(OC)c1/C=C/C(=O)/C=C/c1ccc(-c2cccnc2)cc1` ; percent cell viability relative to control at 50 µM = 111

For this molecule ( `COc1ccc(/C=C/C(=O)/C=C/c2c(OC)cccc2OC)cc1` ), measured percent cell viability relative to control at 50 µM is 108

// percent cell viability relative to control at 50 µM lookup, molecule = `COc1cccc(OC)c1/C=C/C(=O)/C=C/c1ccc(-n2cccn2)cc1` , result: 104
